System: K-562 leukemia
protocol text: NCI-60 one-dose screen, 48 h
run conditions: 10 µM unless noted
The panel holds about 83,000 compounds, 20% with a hit somewhere; the sample as a whole holds those more often. The source made the active and inactive calls. How the source made its calls: active means growth percent below 10; inactive means the rest.
The reply should name one outcome from TRUE for active, FALSE for inactive

>  <molecule>
CCCCCCCCO/N=C\c1c2c(O)c3c(O)c(C)c4c(c3c1O)C(=O)C(C)(O/C=C\C(OC)C(C)C(OC(C)=O)C(C)C(O)C(C)C(O)C(C)/C=C\C=C(\C)C(=O)N2)O4 (centres undefined)

>  <assigned label>
FALSE

$$$$

I would be grateful if you could indicate the recorded call for N#C/C(=C\c1ccccn1)c1nc2cc(Cl)ccc2s1 .
FALSE

Also N#CC1=C(/N=C/c2ccccc2)Oc2c(ccc3ccccc23)C1c1ccc([N+](=O)[O-])cc1 (centres undefined) ?
FALSE

Also Oc1c(Cl)cc(Cl)c(Cl)c1CNCCNCc1c(O)c(Cl)cc(Cl)c1Cl ?
FALSE

Also COc1ccc(CNCCN2C(=O)c3ccc4c5c(ccc(c35)C2=O)C(=O)N(CCNCc2ccc(OC)c(OC)c2OC)C4=O)c(OC)c1OC ?
TRUE

Also C#CCNC(=O)c1cccc2c1cc(C)n2-c1nc2c(c(NCc3ccccc3)n1)CCCC2 ?
TRUE

Also O=C(NO)c1ccc(-n2nc(-c3ccccc3)c3ccccc32)cc1 ?
FALSE

Also N/C(=N\C(N)=N\c1nc2ccccc2s1)c1ccnc(Br)c1 ?
FALSE

Also COc1ccc(C(=O)/C=C/c2cc3ccccc3n3nnnc23)cc1 ?
FALSE

----------
Tested on: SR leukemia
protocol text: NCI-60 one-dose screen, 48 h
run conditions: 10 µM unless noted
This is part of a sample that, as a whole, favours compounds with a hit. Of some 83,000 tested, about 20% had one in any assay. Active and inactive are the calls of the source. How the source made its calls: active means growth percent below 10; inactive means the rest.
The reply should name one outcome from True = active, False = inactive

Sample answers from the record:
>  <molecule>
C=C(C)[C@@H]1CC[C@]2(C(=O)N[C@@H](Cc3ccccc3)C(=O)OC)CC[C@]3(C)[C@H](CC[C@@H]4[C@@]5(C)CCC(=O)C(C)(C)[C@@H]5CC[C@]43C)[C@@H]12

>  <assigned label>
False

$$$$
>  <molecule>
O=C1c2ccc3c4c(ccc(c24)C(=O)N1CCCNCc1ccccc1F)C(=O)N(CCCNCc1ccccc1F)C3=O

>  <assigned label>
True

$$$$
>  <molecule>
N#CC(C#N)=Cc1cc2ccccc2nc1Oc1ccc(C(F)(F)F)cc1

>  <assigned label>
False

$$$$
>  <molecule>
COc1cc2oc(-c3cccc(C(=O)Nc4ccccc4)c3)cc(=O)c2c(O)c1OC

>  <assigned label>
False

$$$$
>  <molecule>
Cc1ccc(C(=O)/C(=C\c2ccc([N+](=O)[O-])cc2)S(=O)Cc2ccc(F)cc2)cc1 (stereo not drawn)

>  <assigned label>
True

$$$$
>  <molecule>
COc1cc(/C=C/c2cc(O)c(C(C)=O)c(O)c2)cc2c1O[C@]1(C)CC[C@@H](O)C(C)(C)[C@H]1C2

>  <assigned label>
False

$$$$
>  <molecule>
COc1ccc(C(=O)c2cc(C)c(OC)c(C)c2)c(OC)c1N(C(=O)CCl)C(=O)CCl

>  <assigned label>
False

$$$$
>  <molecule>
CCCCOc1ccc(/C=N/Nc2cc(C)nc3ccc(Br)cc23)cc1

>  <assigned label>
True

$$$$

I would be grateful if you could indicate the recorded call for Clc1ccc(-c2ccc(CNCC3CCNCC3)o2)c(-c2ccccc2)c1 .
True

Also NC(=NCCCOc1ccc(F)cc1)Nc1ccc(Cl)cc1 ?
False

Also Cc1ccc(NS(=O)(=O)c2ccc(-c3cnc(C4CC4)o3)cc2)cc1C(F)(F)F ?
False

Also C=C1C(=O)O[C@H]2[C@H]1CC/C(COC(=O)NCC(C)c1ccc(CC(C)C)cc1)=C\CC[C@@]1(C)O[C@@H]21 (stereo partly drawn) ?
True

Also CCCCCN1C=C/C(=C\C(=O)n2ccc3ccccc32)c2ccccc21 ?
False

Also C=C1C(=O)O[C@H]2[C@H]1CC/C(CNC(=O)CCc1ccc(OC)cc1)=C\CC[C@@]1(C)O[C@@H]21 ?
False

Also N#C/C(=C\c1ccc([N+](=O)[O-])s1)c1nc2cc(Cl)ccc2s1 ?
True

Also N#CC1C(C#N)C2c3ccccc3C=CN2C1C(=O)c1ccc(Br)cc1 (stereo not drawn) ?
False

Also C/C(=N\Nc1cc(C)nc2ccc(Br)cc12)c1ccc([N+](=O)[O-])cc1 ?
True

Also CC1=CCC(OC(=O)C(C)(O)CCC(O)(C(=O)OC2(C)C=CC(O)(C(C)C)CC2)C(C)C)(C(C)C)CC1 (stereo not drawn) ?
False
